Molecular target: native human MET on living cells (human, UniProt P08581 25-1390)
Sequence (P08581 25-1390): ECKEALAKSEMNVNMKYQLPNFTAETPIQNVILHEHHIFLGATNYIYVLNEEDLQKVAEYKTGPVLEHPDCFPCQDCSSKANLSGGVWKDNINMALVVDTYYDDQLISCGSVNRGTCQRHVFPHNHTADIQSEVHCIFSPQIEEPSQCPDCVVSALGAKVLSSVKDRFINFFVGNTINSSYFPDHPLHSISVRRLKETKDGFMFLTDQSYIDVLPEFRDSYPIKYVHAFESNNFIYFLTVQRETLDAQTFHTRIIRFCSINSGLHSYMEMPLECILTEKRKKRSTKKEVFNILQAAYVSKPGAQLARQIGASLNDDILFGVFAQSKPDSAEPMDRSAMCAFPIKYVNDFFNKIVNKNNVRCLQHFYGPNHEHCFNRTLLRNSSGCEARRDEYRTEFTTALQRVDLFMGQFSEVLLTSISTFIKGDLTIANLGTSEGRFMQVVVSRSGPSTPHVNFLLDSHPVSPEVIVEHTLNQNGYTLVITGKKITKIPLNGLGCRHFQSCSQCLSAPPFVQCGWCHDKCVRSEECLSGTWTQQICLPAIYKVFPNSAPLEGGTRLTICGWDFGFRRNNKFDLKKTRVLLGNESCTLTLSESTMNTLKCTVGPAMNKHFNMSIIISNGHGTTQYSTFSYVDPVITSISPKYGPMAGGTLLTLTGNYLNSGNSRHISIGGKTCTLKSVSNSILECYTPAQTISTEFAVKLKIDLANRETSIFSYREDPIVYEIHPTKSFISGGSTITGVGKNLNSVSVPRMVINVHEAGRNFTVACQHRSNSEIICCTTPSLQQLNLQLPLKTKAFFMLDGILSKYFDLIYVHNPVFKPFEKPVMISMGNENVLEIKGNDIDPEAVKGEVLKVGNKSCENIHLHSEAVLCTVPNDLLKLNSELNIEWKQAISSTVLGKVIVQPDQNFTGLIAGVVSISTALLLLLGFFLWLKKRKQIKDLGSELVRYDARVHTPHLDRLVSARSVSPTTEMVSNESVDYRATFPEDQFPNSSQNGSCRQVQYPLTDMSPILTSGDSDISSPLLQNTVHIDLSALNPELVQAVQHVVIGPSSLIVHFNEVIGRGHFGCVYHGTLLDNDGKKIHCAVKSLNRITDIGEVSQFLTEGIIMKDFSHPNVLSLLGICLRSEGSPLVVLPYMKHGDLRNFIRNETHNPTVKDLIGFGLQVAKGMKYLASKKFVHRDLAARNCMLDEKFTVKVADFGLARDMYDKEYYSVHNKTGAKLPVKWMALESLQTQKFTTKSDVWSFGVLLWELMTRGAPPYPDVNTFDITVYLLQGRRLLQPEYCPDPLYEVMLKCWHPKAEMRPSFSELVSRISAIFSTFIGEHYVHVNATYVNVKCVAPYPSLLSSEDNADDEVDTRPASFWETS
Test: cell-based or functional assay
Outcome Measure: branches per spheroid, LOC cells, 2.5 nM
Report as: number unit

Below are worked cases with known answers.
[[record]]
binder = "71G2 chimeric llama-human IgG1 mAb (antibody, V domains shown, llama VH on human IgG1 CH1-CH2-CH3, llama VL on human lambda CL) VH: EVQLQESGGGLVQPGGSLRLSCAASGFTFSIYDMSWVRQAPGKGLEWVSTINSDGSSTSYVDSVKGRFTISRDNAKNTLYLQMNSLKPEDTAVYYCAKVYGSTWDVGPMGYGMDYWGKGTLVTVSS VL: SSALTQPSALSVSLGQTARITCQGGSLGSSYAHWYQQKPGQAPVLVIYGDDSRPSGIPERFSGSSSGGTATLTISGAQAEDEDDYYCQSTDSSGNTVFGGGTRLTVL"
endpoint_value = "29.3 branches"

[[record]]
binder = "71D6 chimeric llama-human IgG1 mAb (antibody, V domains shown, llama VH on human IgG1 CH1-CH2-CH3, llama VL on human lambda CL) VH: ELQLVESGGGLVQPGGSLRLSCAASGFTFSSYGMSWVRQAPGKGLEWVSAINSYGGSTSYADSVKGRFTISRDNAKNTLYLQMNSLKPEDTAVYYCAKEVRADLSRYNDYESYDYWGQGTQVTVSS VL: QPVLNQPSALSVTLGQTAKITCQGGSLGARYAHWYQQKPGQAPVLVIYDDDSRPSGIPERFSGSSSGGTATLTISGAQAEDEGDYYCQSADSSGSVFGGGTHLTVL"
endpoint_value = "29 branches"


Next binder, please.
Query: Consider the binder 76G7 chimeric llama-human IgG1 mAb (antibody, V domains shown, llama VH on human IgG1 CH1-CH2-CH3, llama VL on human lambda CL) VH: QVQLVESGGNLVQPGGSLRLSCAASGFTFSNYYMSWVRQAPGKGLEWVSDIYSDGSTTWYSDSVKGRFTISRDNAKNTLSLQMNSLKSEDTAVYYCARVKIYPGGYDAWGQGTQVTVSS VL: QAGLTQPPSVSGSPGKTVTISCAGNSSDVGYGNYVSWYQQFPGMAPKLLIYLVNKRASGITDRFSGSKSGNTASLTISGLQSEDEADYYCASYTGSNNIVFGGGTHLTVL . State its measured branches per spheroid, LOC cells, 2.5 nM.
Response: 13.3 branches

Values compiled from patent US20210087281A1.
